IC50 values, listed per item
# STUDY_TARGET: Voltage-dependent N-type calcium channel subunit alpha-1B (Homo sapiens, UniProt Q00975)
# Sequence (Q00975 whole entry): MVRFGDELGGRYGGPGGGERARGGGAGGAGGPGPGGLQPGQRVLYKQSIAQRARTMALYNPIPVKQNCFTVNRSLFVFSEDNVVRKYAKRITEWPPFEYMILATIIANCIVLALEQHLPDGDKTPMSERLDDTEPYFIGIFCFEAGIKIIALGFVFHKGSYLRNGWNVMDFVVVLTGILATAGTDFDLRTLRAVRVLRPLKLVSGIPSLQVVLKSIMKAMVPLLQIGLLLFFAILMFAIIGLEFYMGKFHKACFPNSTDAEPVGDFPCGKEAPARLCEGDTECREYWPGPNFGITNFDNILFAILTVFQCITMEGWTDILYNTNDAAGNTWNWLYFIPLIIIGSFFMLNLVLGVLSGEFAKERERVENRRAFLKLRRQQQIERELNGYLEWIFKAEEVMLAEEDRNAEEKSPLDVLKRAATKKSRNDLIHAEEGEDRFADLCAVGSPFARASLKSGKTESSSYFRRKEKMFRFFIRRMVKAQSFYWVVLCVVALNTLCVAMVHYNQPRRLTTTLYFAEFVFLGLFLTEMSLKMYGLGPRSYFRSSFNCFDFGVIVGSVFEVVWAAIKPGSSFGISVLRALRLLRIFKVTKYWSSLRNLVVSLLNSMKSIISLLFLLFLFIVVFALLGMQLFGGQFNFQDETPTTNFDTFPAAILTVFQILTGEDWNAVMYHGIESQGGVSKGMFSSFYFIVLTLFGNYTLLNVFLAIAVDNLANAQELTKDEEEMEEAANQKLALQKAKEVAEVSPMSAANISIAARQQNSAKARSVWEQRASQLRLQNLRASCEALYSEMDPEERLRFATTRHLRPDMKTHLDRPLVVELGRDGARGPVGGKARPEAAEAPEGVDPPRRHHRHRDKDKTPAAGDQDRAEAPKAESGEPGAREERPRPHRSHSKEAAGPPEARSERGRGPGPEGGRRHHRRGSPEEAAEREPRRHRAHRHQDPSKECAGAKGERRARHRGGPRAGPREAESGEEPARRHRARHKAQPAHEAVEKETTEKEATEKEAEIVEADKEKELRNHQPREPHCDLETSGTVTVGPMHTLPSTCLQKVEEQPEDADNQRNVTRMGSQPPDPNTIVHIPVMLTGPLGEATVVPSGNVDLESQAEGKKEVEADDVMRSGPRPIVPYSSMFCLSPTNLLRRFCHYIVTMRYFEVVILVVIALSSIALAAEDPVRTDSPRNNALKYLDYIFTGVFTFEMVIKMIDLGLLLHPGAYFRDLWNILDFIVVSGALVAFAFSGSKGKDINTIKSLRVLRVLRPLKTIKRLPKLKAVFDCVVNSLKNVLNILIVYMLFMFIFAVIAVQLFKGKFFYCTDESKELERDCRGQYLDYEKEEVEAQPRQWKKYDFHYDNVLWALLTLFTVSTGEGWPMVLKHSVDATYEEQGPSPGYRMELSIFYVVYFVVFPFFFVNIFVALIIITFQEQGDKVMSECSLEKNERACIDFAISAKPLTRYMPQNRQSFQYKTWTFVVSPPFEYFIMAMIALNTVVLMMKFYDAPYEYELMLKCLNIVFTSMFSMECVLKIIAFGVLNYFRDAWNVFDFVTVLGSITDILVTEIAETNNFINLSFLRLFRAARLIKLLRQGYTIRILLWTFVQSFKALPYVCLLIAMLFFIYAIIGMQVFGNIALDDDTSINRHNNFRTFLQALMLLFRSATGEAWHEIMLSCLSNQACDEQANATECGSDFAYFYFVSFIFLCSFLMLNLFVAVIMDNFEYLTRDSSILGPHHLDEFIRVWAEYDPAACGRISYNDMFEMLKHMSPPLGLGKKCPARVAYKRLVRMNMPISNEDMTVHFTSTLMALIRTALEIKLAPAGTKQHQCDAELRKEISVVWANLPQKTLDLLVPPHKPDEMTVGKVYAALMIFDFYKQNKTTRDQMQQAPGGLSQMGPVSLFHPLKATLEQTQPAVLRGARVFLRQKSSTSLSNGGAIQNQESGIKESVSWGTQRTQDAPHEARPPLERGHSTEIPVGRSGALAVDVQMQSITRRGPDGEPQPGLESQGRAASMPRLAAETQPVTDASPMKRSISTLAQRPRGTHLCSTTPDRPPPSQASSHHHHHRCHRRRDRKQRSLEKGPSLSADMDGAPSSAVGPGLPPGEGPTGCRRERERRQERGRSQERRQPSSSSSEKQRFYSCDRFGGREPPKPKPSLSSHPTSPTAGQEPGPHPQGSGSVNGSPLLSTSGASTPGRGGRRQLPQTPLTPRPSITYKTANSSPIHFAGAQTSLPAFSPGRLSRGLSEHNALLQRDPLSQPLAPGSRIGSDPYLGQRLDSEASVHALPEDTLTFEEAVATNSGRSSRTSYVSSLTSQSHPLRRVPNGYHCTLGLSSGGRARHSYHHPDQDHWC
# METHOD: Inhibition of N-type calcium channel in IMR-32 human neuroblastoma cell
# Format: functional
Reply with just the number (in nM).

Use the examples below as a reference point.
COMPOUND	IC50 (nM)
CC(C)(c1ccc(O)c(CN2CCCCCC2)c1)c1ccc(O)c(CN2CCCCCC2)c1	970
CC(CCC(O)(c1ccccc1)c1ccccc1)(c1ccc(O)cc1)c1ccc(O)c(CN2CCCCCC2)c1 (stereo not drawn)	1800

Next up:
Given the compound `O=C(NCC(c1ccc(O)c(CN2CCCCCC2)c1)c1ccc(O)c(CN2CCCCCC2)c1)C(c1ccccc1)c1ccccc1` , write its reported IC50.
1800

----------
# STUDY_TARGET: Voltage-gated L-type calcium channel (Rattus norvegicus, UniProt P22002+Q02485+P27732)
# METHOD: Inhibition of L-type calcium channels in GH-3 rat pituitary cells
# Type: functional, cell-based
# PARTICULARS: pituitary gland cell
IC50 values, listed per item
Reply with just the number (in µM).

Use the examples below as a reference point.
CC(C)(c1ccc(O)c(CN2CCCCCC2)c1)c1ccc(O)c(CN2CCCCCC2)c1 2
CC(CCC(O)(c1ccccc1)c1ccccc1)(c1ccc(O)c(CN2CCCCCC2)c1)c1ccc(O)c(CN2CCCCCC2)c1 0.9
CC(CCCN(Cc1ccccc1)Cc1ccccc1)(c1ccc(O)c(CN2CCCCCC2)c1)c1ccc(O)c(CN2CCCCCC2)c1 4.1

Next up:
Given the molecule `CC(CCC(c1ccccc1)c1ccccc1)(c1ccc(O)c(CN2CCCCCC2)c1)c1ccc(O)c(CN2CCCCCC2)c1` , write its reported IC50.
9.1
